Listed here: items and their measured log10 of IC50.
target: UniProt Q9Y5X9; test: EL assay: endothelial lipase activity with fluorescent substrate A10070 in DMPG vesicles; assay type: biochemical
Give log10 of IC50, with IC50 taken in nM.

| compound | tgt | log10 of IC50 |
| --- | --- | --- |
| COC1CN(C(=O)c2ccc(-c3ccc4nc(C(C(=O)NCCS(N)(=O)=O)S(=O)(=O)CCC(F)(F)F)sc4c3)cc2)C1 (centres unmarked) | UniProt Q9Y5X9 | 0.89 |
| Cc1nnc(CNC(=O)C(c2nc3ccc(-c4cccc(N(C)C)c4)cc3s2)S(=O)(=O)Cc2ccccc2)o1 (centres unmarked) | UniProt Q9Y5X9 | 2.35 |

## Input Item: NS(=O)(=O)c1cccc(CNC(=O)C(c2nc3ccc(-c4ccc(C(=O)N5CCCC5)cc4)cc3s2)S(=O)(=O)Cc2ccccc2)c1 (centres unmarked) Test system: UniProt Q9Y5X9 Read-out: log10 of IC50 Value: ?
## Output 2.28

## Input Item: CS(=O)(=O)C(C(=O)NCCS(N)(=O)=O)c1nc2ccc(-c3ccc(C(=O)N4CC[C@H](O)C4)cc3)cc2s1 (some centres unmarked) Test system: UniProt Q9Y5X9 Read-out: log10 of IC50 Value: ?
## Output 0.60

## Input Item: COC(=O)CCS(=O)(=O)C(C(=O)NCc1nnc(C)o1)c1nc2ccc(-c3ccccc3)cc2s1 (centres unmarked) Test system: UniProt Q9Y5X9 Read-out: log10 of IC50 Value: ?
## Output 2.31

## Input Item: Cc1cc2nc(C(C(=O)NCCS(N)(=O)=O)S(=O)(=O)Cc3ccccc3)sc2cc1-c1ccc(C(=O)N2CC(C)(O)C2)cc1 (centres unmarked) Test system: UniProt Q9Y5X9 Read-out: log10 of IC50 Value: ?
## Output 0.53

## Input Item: CO[C@H]1CCN(C(=O)c2ccc(-c3ccc4nc(C(C(=O)NCCS(N)(=O)=O)S(=O)(=O)CCC(F)(F)F)sc4c3)cc2)C1 (some centres unmarked) Test system: UniProt Q9Y5X9 Read-out: log10 of IC50 Value: ?
## Output -0.15

====

Molecular target: Endothelial lipase (EL) (Homo sapiens (Human), UniProt Q9Y5X9)
Sequence (Q9Y5X9 21-500): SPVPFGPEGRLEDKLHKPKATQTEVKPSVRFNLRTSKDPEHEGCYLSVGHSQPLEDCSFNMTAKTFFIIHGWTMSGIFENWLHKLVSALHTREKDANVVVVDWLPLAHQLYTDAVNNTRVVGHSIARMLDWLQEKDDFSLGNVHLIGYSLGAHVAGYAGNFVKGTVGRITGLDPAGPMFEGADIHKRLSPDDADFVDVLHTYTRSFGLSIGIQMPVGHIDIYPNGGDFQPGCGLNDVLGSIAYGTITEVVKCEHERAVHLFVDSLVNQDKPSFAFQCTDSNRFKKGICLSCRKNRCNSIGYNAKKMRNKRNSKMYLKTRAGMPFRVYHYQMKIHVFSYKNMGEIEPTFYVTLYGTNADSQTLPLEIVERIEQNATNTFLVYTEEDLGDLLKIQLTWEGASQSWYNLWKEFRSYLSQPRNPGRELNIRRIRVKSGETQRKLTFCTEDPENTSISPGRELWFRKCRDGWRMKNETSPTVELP
Assay: EL assay: endothelial lipase activity with fluorescent substrate A10070 in DMPG vesicles
Type: biochemical
Description: Endothelial lipase (EL) and hepatic lipase (HL) activities were measured using a fluorescent substrate, A10070, (Invitrogen, CA) doped into an artificial vesicle containing DMPG (Avanti Polar Lipids) as the excipient. […] The enzymatic assay was measured using 384-well white Optiplates. […] The reaction rates were measured on a Gemini plate reader with an excitation wavelength of 490 nm and an emission wavelength of 530 nm. […]
Listed here: items and their measured pIC50.
Bear in mind: pIC50 is minus log10 of a mol/L concentration; give just that figure.

| molecule | pIC50 |
| --- | --- |
| NS(=O)(=O)CCNC(=O)C(c1nc2cc(-c3ccc(F)nc3)ccc2s1)S(=O)(=O)CCC(F)(F)F (stereo not shown) [Example B311] | 8.51 |
| CC(C)CS(=O)(=O)C(C(=O)NCCS(N)(=O)=O)c1nc2ccc(-c3cnn(CCN4CCOCC4)c3)cc2s1 (stereo not shown) [Example B123] | 7.74 |

## Input Item: COCCS(=O)(=O)C(C(=O)NCc1nnc(C)o1)c1nc2ccc(-c3ccc(C(=O)N4CC(C)(O)C4)cc3)cc2s1 (stereo not shown) [Example B265] Test system: Endothelial lipase (EL) (Homo sapiens (Human), UniProt Q9Y5X9) Read-out: pIC50 Value: ?
## Output 7.23
